Collected IC50 values appear next to each entry.
System: MCF7
Experiment: Cytotoxicity against human MCF7 cells after 48 hrs by SRB assay
Format: functional, cell-based
Conditions: MCF7, 48 h
Supply the numeric figure in nM, leaving out any unit text.

Use these answered entries as a reference point.
CC[C@H](CO)Nc1nc(NCc2ccccc2)c2ncn(C(C)C)c2n1 12200
CC(=O)n1nc(NC(=O)c2ccccc2)c2c1CN(C(=O)c1ccccc1)C2 990

QUERY: Quote IC50 with test system MCF7 for CCC(=O)n1nc(NC(=O)c2ccccc2)c2c1CN(C(=O)c1ccccc1)C2
RESULT: 1070

----------
Tested on: HepG2
Test: Cytotoxicity against human HepG2 cells after 48 hrs by SRB assay
Type: functional, cell-based
Conditions: HepG2, 48 h
Experimental endpoint: IC50
Write the numeric value and append its unit.

# example entries with known answers
CC(=O)n1nc(NC(=O)c2ccccc2)c2c1CN(C(=O)c1ccccc1)C2 810 nM
CC[C@H](CO)Nc1nc(NCc2ccccc2)c2ncn(C(C)C)c2n1 15500 nM

Moving on to the next compound.
QUERY: Return IC50 for the following compound: CCC(=O)n1nc(NC(=O)c2ccccc2)c2c1CN(C(=O)c1ccccc1)C2
RESULT: 860 nM
